Values compiled from paper PMC10177380.

Tested on: HT29 colon cells
procedure.details: Mitochondrial membrane potential, TMRE-MtMP assay
Type: cell-based, human
experimental.parameters: HT29, 24 h, treatment at GI50 concentration (FCCP positive control 20 μM)
readout.kind: MtMP Changes

compound	value.reported
Cc1cc2c3c4c1=CC=C[N]4[Pt+2]([OH])([OH])[N]3C=CC=2.N[C@H]1CCCC[C@@H]1N	301 ± 14 RFU
COc1ccc2c(c1)c(CC(=O)OCC(=O)[O][Pt-2]13([OH])([NH2+][C@H]4CCCC[C@@H]4[NH2+]1)[n+]1cccc4cc(C)c5ccc[n+]3c5c41)c(C)n2C(=O)c1ccc(Cl)cc1 [Complex 5, [Pt^IV(5-Mephen)(SS-DACH)(ACE)(OH)]^2+]	412 ± 4 RFU
COc1ccc2c(c1)c(CC(=O)OCC(=O)O)c(C)n2C(=O)c1ccc(Cl)cc1	494 ± 6 RFU
COc1ccc2c(c1)c(CC(=O)OCC(=O)[O][Pt-2]13([OH])([NH2+][C@H]4CCCC[C@@H]4[NH2+]1)[n+]1cccc4ccc5ccc[n+]3c5c41)c(C)n2C(=O)c1ccc(Cl)cc1 [Complex 4, [Pt^IV(phen)(SS-DACH)(ACE)(OH)]^2+]	416 ± 8 RFU
C1=C[N]2[Pt+2][N]3C=CC=c4ccc(c2c43)=C1.N[C@H]1CCCC[C@@H]1N	289 ± 17 RFU
COc1ccc2cc([C@H](C)C(=O)[O][Pt+2]3([OH])[N]4C=CC=c5c(C)c(C)c6c(c54)[N]3C=CC=6)ccc2c1.N[C@H]1CCCC[C@@H]1N	351 ± 5 RFU
COc1ccc2cc([C@H](C)C(=O)O)ccc2c1	499 ± 10 RFU
COc1ccc2cc([C@H](C)C(=O)[O][Pt+2]3([OH])[N]4C=CC=c5ccc6c(c54)[N]3C=CC=6)ccc2c1.N[C@H]1CCCC[C@@H]1N [Complex 1, [Pt^IV(phen)(SS-DACH)(NPX)(OH)]^2+]	382 ± 11 RFU
COc1ccc2cc([C@H](C)C(=O)[O][Pt+2]3([OH])[N]4C=CC=c5cc(C)c6c(c54)[N]3C=CC=6)ccc2c1.N[C@H]1CCCC[C@@H]1N (stereo partly shown) [Complex 2, [Pt^IV(5-Mephen)(SS-DACH)(NPX)(OH)]^2+]	368 ± 9 RFU
N#CC(C#N)=NNc1ccc(OC(F)(F)F)cc1	194 ± 10 RFU
